B1: CPEB3 Ribozyme (parent)
chain: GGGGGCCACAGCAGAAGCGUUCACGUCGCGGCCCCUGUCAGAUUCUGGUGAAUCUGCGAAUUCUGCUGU

# Variants of: B1
# ASSAY NAME: self-cleavage, relative activity (ratio to wild type); higher = more cleavage; co-transcriptional

- MUTANT: "C35G A40G"
  self-cleavage: 0.394
- MUTANT: "G3U G47C"
  self-cleavage: 0.177
- MUTANT: "G14C G25A"
  self-cleavage: 0.142
- MUTANT: "C34U U55A"
  self-cleavage: 0.925
- MUTANT: "G19A U36G"
  self-cleavage: 0.165
- MUTANT: "C32A C63U"
  self-cleavage: 0.772
- MUTANT: "G50A A52U"
  self-cleavage: 0.993
- MUTANT: "C7U C27A"
  self-cleavage: 0.289
- MUTANT: "A42G A59C"
  self-cleavage: 0.577
- MUTANT: "G17C A42U"
  self-cleavage: 0.151
- MUTANT: "G19U U36G"
  self-cleavage: 0.222
- MUTANT: "G2A C9G"
  self-cleavage: 0.411
- MUTANT: "C12U G28U"
  self-cleavage: 0.131
- MUTANT: "C7A G58A"
  self-cleavage: 0.338
- MUTANT: "G11A G56A"
  self-cleavage: 0.708
- MUTANT: "G11A G25C"
  self-cleavage: 0.103
- MUTANT: "C34U U36G"
  self-cleavage: 0.256
- MUTANT: "G37A U43A"
  self-cleavage: 0.261
- MUTANT: "U20G C34G"
  self-cleavage: 0.28
- MUTANT: "U67G G68C"
  self-cleavage: 1.07
- MUTANT: "C35G U69C"
  self-cleavage: 0.77
- MUTANT: "G48A A52G"
  self-cleavage: 0.989
- MUTANT: "U49G A52U"
  self-cleavage: 0.986
- MUTANT: "G48U U64A"
  self-cleavage: 0.96
- MUTANT: "G17C C33A"
  self-cleavage: 0.152
- MUTANT: "G30A U62C"
  self-cleavage: 0.497
- MUTANT: "G30C A60G"
  self-cleavage: 0.411
- MUTANT: "G17A A40C"
  self-cleavage: 0.145
- MUTANT: "C32A C34U"
  self-cleavage: 0.362
- MUTANT: "A16U U44A"
  self-cleavage: 0.729
- MUTANT: "G2C C35G"
  self-cleavage: 0.313
- MUTANT: "C22G G65C"
  self-cleavage: 0.196
- MUTANT: "A51U G58U"
  self-cleavage: 0.954
- MUTANT: "A40C U46A"
  self-cleavage: 0.866
- MUTANT: "C32A G56U"
  self-cleavage: 0.683
- MUTANT: "U38C U44A"
  self-cleavage: 0.891
- MUTANT: "U38A A51U"
  self-cleavage: 0.84
- MUTANT: "C66G U67A"
  self-cleavage: 0.937
- MUTANT: "G11U G17A"
  self-cleavage: 0.141
- MUTANT: "C12U U53A"
  self-cleavage: 0.909
- MUTANT: "G3U C29U"
  self-cleavage: 0.0459
- MUTANT: "U38G G47U"
  self-cleavage: 0.219
- MUTANT: "U43A U44G"
  self-cleavage: 0.957
- MUTANT: "C24G C27U"
  self-cleavage: 0.149
- MUTANT: "A8C"
  self-cleavage: 0.999
- MUTANT: "A23G U43G"
  self-cleavage: 0.721
